Tested on: Fibroblast
Assay: Multiplex assay against human fibroblast
Assay type: toxicity, cell-based
Settings: 24 h, 1 µM, compound concentration 1 uM, replicate 1
// values below are reported Population Hoechst High Intensity Objects (%)
Return type: number; implicit unit %.

O=C(O)Cc1ccccc1Nc1c(Cl)cccc1Cl :: 2
CN(C)CCCc1cc(C(=O)Nc2ccc(-c3ccncc3)cc2)ccc1O.Cl.Cl :: 1
O=C(NCCO)c1cccc(-c2cc(Nc3ccc(OC(F)(F)F)cc3)ncn2)c1 :: 1

Qu. Which Population Hoechst High Intensity Objects (%) value belongs to Cc1ccc(/C(=C\CN2CCCC2)c2ccccn2)cc1 ?
Ans. 4

Qu. Now consider Cc1ccccc1C(=O)Nc1ccc(C(=O)N2CCCC(N(C)C)c3ccccc32)cc1.Cl (centres undefined) .
Ans. 1

Qu. Now consider COc1cc(NC(=O)CCN2CCC(OC(=O)Nc3ccccc3-c3ccccc3)CC2)c(Cl)cc1CNC[C@H](O)c1ccc(O)c2[nH]c(=O)ccc12 .
Ans. 1

Qu. Now consider COc1ccc2c(c1)C(C(=O)N(Cc1ccc(N(C)C)cc1)c1ccc(C(C)C)cc1)CCC2.Cl (centres undefined) .
Ans. 1

Qu. Now consider CC1(COc2ccc3c(c2)ncn3-c2ccc3cccc(N4CCC(N)CC4)c3n2)COC1 .
Ans. 0

Qu. Now consider CN1CCN2c3ncccc3Cc3ccccc3C2C1 (centres undefined) .
Ans. 5

---

// values below are reported Population Mitotic Cells (%)
System: HEK-293T
Experiment: Multiplex assay against HEK293T
Type: toxicity, cell-based
Details: human, 12 h, 1 µM, compound concentration 1 uM, replicate 1
Return type: number; implicit unit %.

Example cases with answers are listed next.
N[C@@]1(C(=O)O)CO[C@H]2[C@H](C(=O)O)[C@H]21 :: 60
CN(C)c1ccnc2sc3c(=O)n(N4CCCCCC4)cnc3c12 :: 54
CN1CCN2c3ncccc3Cc3ccccc3C2C1 (stereo not drawn) :: 41
CC[C@H]1OC(=O)[C@H](C)[C@@H](O[C@H]2C[C@@](C)(OC)[C@@H](O)[C@H](C)O2)[C@H](C)[C@@H](O[C@@H]2O[C@H](C)C[C@H](N(C)C)[C@H]2O)[C@@]2(C)CC(C)=C(O2)[C@H](C)[C@@H](O)[C@]1(C)O :: 64
CNC[C@H](O)c1ccc(O)c(O)c1 [EPINEPHRINE] :: 80
Cl.Clc1ccc2nsnc2c1NC1=NCCN1 [TIZANIDINE HYDROCHLORIDE] :: 60
O=C(O)Cc1ccccc1Nc1c(Cl)cccc1Cl :: 63
CN(C)CCCc1cc(C(=O)Nc2ccc(-c3ccncc3)cc2)ccc1O.Cl.Cl :: 72
COc1c(C)cc(NC(=O)c2nn(Cc3ccc(F)cc3)c3c2CN(C(=O)c2ccc[nH]2)C[C@]3(C)C(N)=O)cc1C :: 57
CCCN1CCC[C@@H]2Cc3n[nH]cc3C[C@H]21.Cl [QUINPIROLE HYDROCHLORIDE] :: 67

Qu. Which Population Mitotic Cells (%) value belongs to Cc1ccc(/C(=C\CN2CCCC2)c2ccccn2)cc1 ?
Ans. 65

Qu. Now consider CCCn1c(=O)c2[nH]c(C3CCCC3)nc2n(CCC)c1=O .
Ans. 64

Qu. Now consider O=C(NCC(=O)N1CC[C@H](N[C@H]2CC[C@@](O)(c3ccc(-c4ncccn4)cn3)CC2)C1)c1cccc(C(F)(F)F)c1 .
Ans. 56

Qu. Now consider COc1ccc2c(c1)C(C(=O)N(Cc1ccc(N(C)C)cc1)c1ccc(C(C)C)cc1)CCC2.Cl (stereo not drawn) .
Ans. 70

Qu. Now consider CC(=O)NCCc1c(Cc2ccccc2)[nH]c2ccccc12 .
Ans. 61

Qu. Now consider O=C(NCCO)c1cccc(-c2cc(Nc3ccc(OC(F)(F)F)cc3)ncn2)c1 .
Ans. 72

Qu. Now consider Cc1ccc(C(C)(O)c2nc3ccccc3s2)c(C)c1 (stereo not drawn) .
Ans. 70

Qu. Now consider Cc1ccccc1C(=O)Nc1ccc(C(=O)N2CCCC(N(C)C)c3ccccc32)cc1.Cl (stereo not drawn) .
Ans. 81

---

Tested on: Fibroblast
Assay: Multiplex assay against human fibroblast
Type: toxicity, cell-based
Conditions: 48 h, 10 µM, compound concentration 10 uM, replicate 2
recordedMetric: Population Pyknosed Nuclei (%)
Return type: number; implicit unit %.

CCCn1c(=O)c2[nH]c(C3CCCC3)nc2n(CCC)c1=O :: 10
O=C(NCC(=O)N1CC[C@H](N[C@H]2CC[C@@](O)(c3ccc(-c4ncccn4)cn3)CC2)C1)c1cccc(C(F)(F)F)c1 :: 15
COc1ccc2c(c1)C(C(=O)N(Cc1ccc(N(C)C)cc1)c1ccc(C(C)C)cc1)CCC2.Cl (stereo not given) :: 2
Cc1ccc(C(C)(O)c2nc3ccccc3s2)c(C)c1 (stereo not given) :: 12

Lab note: next molecule to report on.
Qu. Which Population Pyknosed Nuclei (%) value belongs to Cc1ccccc1C(=O)Nc1ccc(C(=O)N2CCCC(N(C)C)c3ccccc32)cc1.Cl (stereo not given) ?
Ans. 13

---

// values below are reported Population Tubulin-Different-Phenotype (%)
Tested on: Fibroblast
Assay: Multiplex assay against human fibroblast
Format: toxicity, cell-based
Conditions: 48 h, 10 µM, compound concentration 10 uM, replicate 2
Return type: number; implicit unit %.

CSc1ccccc1N1CCN(CCCCCC(=O)NC2CCCc3ccccc32)CC1.Cl (stereo not drawn) :: 83
Cl.Clc1ccc2nsnc2c1NC1=NCCN1 [TIZANIDINE HYDROCHLORIDE] :: 44

Qu. Which Population Tubulin-Different-Phenotype (%) value belongs to CCCN1CCC[C@@H]2Cc3n[nH]cc3C[C@H]21.Cl [QUINPIROLE HYDROCHLORIDE] ?
Ans. 48

Qu. Now consider COc1c(C)cc(NC(=O)c2nn(Cc3ccc(F)cc3)c3c2CN(C(=O)c2ccc[nH]2)C[C@]3(C)C(N)=O)cc1C .
Ans. 75

---

Tested on: U2OS
Test: Multiplex assay against U2OS
Type: toxicity, cell-based
Details: human, 24 h, 1 µM, compound concentration 1 uM, replicate 1
recordedMetric: Population Tubulin-Different-Phenotype (%)
Return type: number; implicit unit %.

Qu. Which Population Tubulin-Different-Phenotype (%) value belongs to CC1(COc2ccc3c(c2)ncn3-c2ccc3cccc(N4CCC(N)CC4)c3n2)COC1 [CRENOLANIB] ?
Ans. 87

Qu. Now consider CCCC(CCC)C(=O)O [VALPROIC ACID] .
Ans. 9

Qu. Now consider CC(=O)NCCc1c(Cc2ccccc2)[nH]c2ccccc12 [LUZINDOLE] .
Ans. 3

---

// values below are reported Population Tubulin-Different-Phenotype (%)
System: U2OS
Experiment: Multiplex assay against U2OS
Type: toxicity, cell-based
Settings: human, 24 h, 10 µM, compound concentration 10 uM, replicate 1
Return type: number; implicit unit %.

Example cases with answers are listed next.
CCOc1c2c(c(OCC)c3ncccc13)CN(c1ccc(CS(=O)(=O)NC(=O)Cc3ccccc3OC)cc1C)C2=O :: 1
COc1ccc2c(c1)C(C(=O)N(Cc1ccc(N(C)C)cc1)c1ccc(C(C)C)cc1)CCC2.Cl (stereo not drawn) :: 49

Lab note: next compound to report on.
Qu. Requested read-out Population Tubulin-Different-Phenotype (%), target or system U2OS, entry O=C(NCCO)c1cccc(-c2cc(Nc3ccc(OC(F)(F)F)cc3)ncn2)c1
Ans. 1

---

Test system: U2OS
Assay: Multiplex assay against U2OS
Type: toxicity, cell-based
Conditions: human, 12 h, 1 µM, compound concentration 1 uM, replicate 1
recordedMetric: Population Apoptotic (%)
Return type: number; implicit unit %.

Example cases with answers are listed next.
C[C@H](NC(=O)c1c(C(F)F)nn(C)c1Oc1cccc(C(F)(F)F)c1)c1ccc(C(=O)O)cc1 :: 60
Cc1ccc(F)cc1C(=O)Nc1ccc(C(=O)N2Cc3cccn3Cc3ccccc32)c(Cl)c1 :: 69

Qu. Which Population Apoptotic (%) value belongs to CN(C)CCCc1cc(C(=O)Nc2ccc(-c3ccncc3)cc2)ccc1O.Cl.Cl ?
Ans. 89

Qu. Now consider C[C@H]1[C@H]2CC[C@H]3[C@@H]4CC=C5C[C@@H](N(C)C)CC[C@]5(C)[C@H]4CC[C@]23CN1C .
Ans. 80

---

Tested on: HEK-293T
Assay: Multiplex assay against HEK293T
Type: toxicity, cell-based
Details: human, 12 h, 1 µM, compound concentration 1 uM, replicate 2
// values below are reported Population Hoechst High Intensity Objects (%)
Please state the number and follow it with the unit.

CN1CCN2c3ncccc3Cc3ccccc3C2C1 (centres undefined) :: 7%
COc1ccc2c(c1)C(C(=O)N(Cc1ccc(N(C)C)cc1)c1ccc(C(C)C)cc1)CCC2.Cl (centres undefined) :: 4%
C[C@H]1[C@H]2CC[C@H]3[C@@H]4CC=C5C[C@@H](N(C)C)CC[C@]5(C)[C@H]4CC[C@]23CN1C :: 8%
CSc1ccccc1N1CCN(CCCCCC(=O)NC2CCCc3ccccc32)CC1.Cl (centres undefined) :: 12%
CN1CCN(c2nc3cc(C(F)(F)F)ccc3n3cccc23)CC1.O=C(O)/C=C\C(=O)O.O=C(O)/C=C\C(=O)O :: 5%

Qu. Requested read-out Population Hoechst High Intensity Objects (%), target or system HEK-293T, entry C[C@H](NC(=O)c1c(C(F)F)nn(C)c1Oc1cccc(C(F)(F)F)c1)c1ccc(C(=O)O)cc1
Ans. 5%

Qu. Now consider COc1cc(C(=O)N(CCCc2ccccc2)Cc2ccc(CC(=O)O)cc2)cc(OC)c1C .
Ans. 4%

Qu. Now consider CN(C)c1ccnc2sc3c(=O)n(N4CCCCCC4)cnc3c12 .
Ans. 8%

Qu. Now consider Cc1nc2ccc(Oc3ccc(F)cc3)cc2c(=O)n1C[C@H]1CCCN(C(C)C)C1.Cl .
Ans. 27%

Qu. Now consider Cc1ccc(C(C)(O)c2nc3ccccc3s2)c(C)c1 (centres undefined) .
Ans. 5%

Qu. Now consider CN(C)CCCc1cc(C(=O)Nc2ccc(-c3ccncc3)cc2)ccc1O.Cl.Cl .
Ans. 8%

Qu. Now consider Cc1ccc(F)cc1C(=O)Nc1ccc(C(=O)N2Cc3cccn3Cc3ccccc32)c(Cl)c1 .
Ans. 5%

Qu. Now consider CC(=O)NCCc1c(Cc2ccccc2)[nH]c2ccccc12 .
Ans. 8%
